- Tested on: MALME-3M melanoma
- measurement description: NCI tumour cell line growth inhibition, 48 h; in the data active = GI50 below about 0.43 µM; inactive = the rest
Pick one and only one: True = active, False = inactive

Study these solved cases before continuing.
>>> df
                                   compound  assigned_class
0  CCOC(=O)c1cc(C(=O)c2ccc(OC)cc2)n2ccc(/C=C/c3cc[n+](CC(=O)c4ccc(OC)cc4)cc3)cc12           False
1  O=C1Nc2c(ccc(Cl)c2Cl)/C1=C/c1cc(Br)c(O)c(Br)c1           False
2  O=C1NC(=C(Cl)Cl)/C(=N/S(=O)(=O)N2CCCCC2)N1           False
3   Cc1cc2nc(NCCN)n(Cc3ccc(F)c(Cl)c3)c2cc1C           False

Input: What call does the record list for CC1Cc2c(Cl)ncnc2N(C)c2ccc(Cl)cc21 (stereo not given) ?
Output: True
